# Test system: 8-day Krocker sarcoma (S-180)
# Recorded conditions: dose 100 mg/kg, intravenous, tumor volume or weight after 4-5 days
Where a SMILES comes first, the peptide text is derived from it. [ ]: non-standard residue; d: D form.
Readout name: Inhibition of the tumor growth, % of the control

Compound | Test value
CC(=O)N[C@H]1C(O)O[C@H](CO)[C@@H](O)[C@@H]1O[C@H](C)C(=O)O (some centres unmarked) | 37 % of the control
CC(=O)NC1C(OC2C(CO)OC(O)C(NC(C)=O)C2OC(C)C(=O)NC(C)C(=O)NC(CCC(=O)O)C(N)=O)OC(CO)C(O)C1O (centres unmarked) | 70 % of the control
CC(=O)N[C@H]1C(O[C@H]2[C@H](O[C@H](C)C(=O)O)[C@@H](NC(C)=O)C(O)O[C@@H]2CO)O[C@H](CO)[C@@H](O)[C@@H]1O (some centres unmarked) | 0 % of the control
C[C@H](N)C(=O)N[C@H](CCC(=O)O)C(N)=O [X, Ala-D-Glu-NH2] (H-Ala-[dE]-NH2) | +28 % of the control
C[C@H](N)C(=O)N[C@H](CCC(=O)O)C(=O)O [XI, Ala-D-Glu] (H-Ala-[dE]-OH) | 37.3 % of the control
